tested.system: Nonstructural protein 3 (Zika virus)
test.method.notes: Functional biochemical assay to identify treatments for viral infectious disease that targets Zika NS2B-NS3 protease. Utilizing a direct enzyme activity measurement method, reading the fluorescence intensity is used to characterize the relative potency of inhibitors as IC50.
Set-up: species or system PRVABC59
pIC50: −log10 of the molar value.
Recorded pIC50, one value per entry.

Consider the following illustrative entries.
Query: For the molecule shown here, "Cc1ccc([C@@H](NC(=O)OCc2ccccc2)C(=O)Nc2cccc(CN)c2)cc1C(F)(F)F" , give the reported pIC50.
Response: 4.31

Query: What do you have for "Cc1c(C(=O)Nc2cc(Br)c3c(c2)COC3)cc(C2CC2)n1C" ?
Response: < 4.60

Query: What do you have for "Cc1cccnc1COc1ccc(S(=O)(=O)Nc2ccc(Cl)cc2C(=O)O)cc1" ?
Response: < 4.00

Next:
Query: For the molecule shown here, "NCc1cccc(NC(=O)C[C@H](CC(N)=O)c2ccc(F)cc2)c1" , give the reported pIC50.
Response: < 4.00

Query: What do you have for "NCc1cccc(NC(=O)[C@H](NC(=O)OCc2ccccc2)c2ccc(OCc3ccncn3)cc2)c1" ?
Response: 4.08

Query: What do you have for "OC[C@H]1CCN(c2cncc(N3CCOCC3)n2)C1" ?
Response: < 4.00

Query: What do you have for "OCc1cc(C2CCN(Cc3c[nH]c4ccccc34)CC2)no1" ?
Response: 4.26

Query: What do you have for "CN(C(=O)c1ccc2c(c1)[C@H](CN)CCC2)C1CCN(CC(F)F)CC1" ?
Response: < 4.00

Query: What do you have for "Cc1nc2ccc(C(=O)Nc3ccc4c(c3)CNC4)cc2s1" ?
Response: < 4.60

Query: What do you have for "CCNC(=O)[C@@H](NC(=O)OCc1ccccc1)c1ccc(OCc2ccccc2)cc1" ?
Response: < 4.00

Query: What do you have for "CN1Cc2ccc(NC(=O)c3cc(Cl)cc4[nH]ncc34)cc2C1" ?
Response: 6.08

----------
tested.system: Nonstructural protein 3 (Zika virus, UniProt A0A024AXB9)
Sequence (A0A024AXB9 whole entry): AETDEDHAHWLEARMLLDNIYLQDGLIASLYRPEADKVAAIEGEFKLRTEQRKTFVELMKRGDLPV
test.method.notes: Functional biochemical assay to identify treatments for viral infectious disease that targets Zika NS2B-NS3 protease. Utilizing a direct enzyme activity measurement method, reading the fluorescence intensity is used to characterize the relative potency of inhibitors as IC50.
Parameters: species or system PRVABC59
pIC50: −log10 of the molar value.
measured.parameter: pIC50

Consider the following illustrative entries.
Query: For the compound shown here, "O=C(Nc1cc(Cl)cc(C(=O)Nc2ccc(CC3CCNCC3)cc2)c1)OCc1ccccc1" , give the reported pIC50.
Response: 5.28

Query: What do you have for "C#Cc1cc(CN)ccc1NS(=O)(=O)c1ccc(Oc2ccccc2Cl)cc1" ?
Response: < 4.00

Query: What do you have for "O=C(NCc1nnn[nH]1)c1cc(Cl)ccc1NS(=O)(=O)c1ccc(Oc2ccccc2Cl)cc1" ?
Response: < 4.00

Query: What do you have for "CN1Cc2cc(NC(=O)c3cc(Cl)cc4[nH]ncc34)ccc2C1(C)C" ?
Response: 5.14

Query: What do you have for "C[C@@H](C(=O)Nc1cccc(CN)c1)c1ccc(OCc2ccccc2)cc1" ?
Response: < 4.00

Query: What do you have for "O=C1Cc2c(cccc2C(=O)Nc2ccc3c(n2)CNC3)N1" ?
Response: 5.85

Next:
Query: For the compound shown here, "O=C(Nc1cc(Cl)cc(-c2ccc3[nH]c(C(=O)O)cc3c2)c1)OCc1ccccc1" , give the reported pIC50.
Response: 5.12

Query: What do you have for "O=C(Nc1ccc([C@H]2CCNC2)cc1)c1cc(Cl)cc2[nH]ncc12" ?
Response: 5.60
